- ASSAY_TEXT: A549 lung cancer cell viability effects, profiling panel, resazurin fluorescence, 24 h, PK04 Diversity Set (AID 1171); further: test concentration not given here
- DETAILS: higher = more signal, called active from +8 up or from −8 down

COMPOUND | z-score
C=C(C)C(=O)OC[C@H]1CN2[C@@H](CC[C@@H](C)[C@@H]2c2ccc(Br)cc2)C(=O)O1 | 0.634
CCOC(=O)[C@H](CC(C)C)NC(=O)CCC1CC(OC(=O)NCCc2ccc(F)cc2)CC2(CCCC(COC(=O)NCc3cccc4ccccc34)O2)O1 (some centres not stated) | 1.15
CSCC[C@@H]1NC(=O)CC=C[C@@H](C)COC(=O)[C@H](C)COC1=O | -0.365
CCOC(=O)[C@H](Cc1ccccc1)NC(=O)CCC1CC(OC(=O)NCc2ccc3c(c2)OCO3)CC2(CCCC(COC(=O)NCCOC)O2)O1 (some centres not stated) | 0.32
COC(=O)[C@@H]1CC[C@H](C)[C@@H](c2ccc(C)cc2)N1C(=O)c1ccc(C=NOC[C@@H](O)[C@H]2O[C@@H]3OC(C)(C)O[C@@H]3[C@H]2O)cc1 | -0.089
CCOC(=O)[C@H](Cc1ccccc1)NC(=O)CCC1CC(OC(=O)NCCc2ccc(F)cc2)CC2(CCCC(COC(=O)NCCC(C)C)O2)O1 (some centres not stated) | 1.87
CCN1C(=O)[C@H]2[C@H]3[C@H](O)[C@H](O)CC(=NO[C@@H](C)c4cc(-c5c(C)cc(C)cc5C)no4)[C@@H]3CC[C@H]2C1=O | 0.296

----------
The entries below come with measured composite z-score values attached.
- TESTED_TARGET: Albumin (Bos taurus) (UniProt P02769)
- Sequence (P02769 whole entry, looked up): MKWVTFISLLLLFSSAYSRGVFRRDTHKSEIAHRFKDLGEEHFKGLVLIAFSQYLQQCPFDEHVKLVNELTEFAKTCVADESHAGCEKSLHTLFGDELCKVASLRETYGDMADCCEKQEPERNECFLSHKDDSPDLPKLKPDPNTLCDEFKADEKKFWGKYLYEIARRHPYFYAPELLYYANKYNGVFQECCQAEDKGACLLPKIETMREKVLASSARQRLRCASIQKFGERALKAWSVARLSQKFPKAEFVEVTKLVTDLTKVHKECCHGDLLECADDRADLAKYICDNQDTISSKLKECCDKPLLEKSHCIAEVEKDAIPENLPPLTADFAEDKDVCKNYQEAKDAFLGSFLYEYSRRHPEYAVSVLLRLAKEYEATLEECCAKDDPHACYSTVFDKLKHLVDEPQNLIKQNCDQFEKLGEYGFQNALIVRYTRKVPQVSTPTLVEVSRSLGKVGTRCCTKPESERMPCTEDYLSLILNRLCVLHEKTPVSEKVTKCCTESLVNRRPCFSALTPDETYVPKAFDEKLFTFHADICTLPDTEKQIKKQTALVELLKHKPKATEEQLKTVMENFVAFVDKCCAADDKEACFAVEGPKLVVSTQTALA
- ASSAY_TEXT: bovine serum albumin binders on microarray, profiling panel, artefact control for SMM control protein annotation, biochemical, small-molecule microarray, Alexa647 label, 635/667 nm fluorescence (AID 1118);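 further: score merges 667 nm emission intensity and signal-to-noise per printed compound spot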
- DETAILS: BSA-A647 binding, fluorescence 635 nm, higher = more signal

COMPOUND | TESTED_TARGET | composite z-score
C#CCCCON=C1[C@H]2CCn3c(=O)n([C@@H](CC)c4ccccc4)c(=O)n3[C@H]2[C@H](O)[C@@H]2O[C@H]12 | Albumin (Bos taurus) (UniProt P02769) | 0.0481
COC(=O)[C@H](C)NC(=O)CCC1CC(OC(=O)NCc2ccc3c(c2)OCO3)CC2(CCCC(COC(=O)NCCC(C)C)O2)O1 (stereo partly drawn) | Albumin (Bos taurus) (UniProt P02769) | 0.492
COC(=O)[C@H](C)NC(=O)CCC1CC(OC(=O)NCc2ccc3c(c2)OCO3)CC2(CCCC(COC(=O)NCCc3ccc(Cl)cc3)O2)O1 (stereo partly drawn) | Albumin (Bos taurus) (UniProt P02769) | 0.293
COc1ccc(O[C@H]2C=C[C@@H](c3ccccc3)O[C@@H]2CON=C(C)CCN2CCCc3nc(C)c(C)cc32)cc1 | Albumin (Bos taurus) (UniProt P02769) | 0.118
CO[C@H]1COC(=O)CCC[C@H](C)[C@H](OC)COC(=O)CC=C[C@@H]1C | Albumin (Bos taurus) (UniProt P02769) | -0.235
CC(=O)OC[C@H]1O[C@H](C#CCCc2ccccc2)C=C[C@@H]1OC(C)=O | Albumin (Bos taurus) (UniProt P02769) | 0.829
O=C1C[C@@H](O)[C@@H](O)[C@@H]2[C@@H]3C(=O)N(Cc4ccccc4)C(=O)[C@@H]3CC[C@H]12 | Albumin (Bos taurus) (UniProt P02769) | -0.0028
CCN1C(=O)[C@H]2[C@H]3[C@H](O)[C@H](O)CC(=NOCC(C)C)[C@H]3CC[C@H]2C1=O | Albumin (Bos taurus) (UniProt P02769) | -0.369

----------
- Test system: Lefty1
- ASSAY_TEXT: Lefty1 binders on small-molecule microarrays, primary screen, biochemical, small-molecule microarray, 635/667 nm fluorescence (AID 1139)
- DETAILS: small-molecule microarray binding, fluorescence 635/667; higher = more signal
The entries below come with measured composite z-score values attached.

COMPOUND | composite z-score
OC[C@H]1O[C@H](C#Cc2ccccc2)C=C[C@@H]1O | 0.409
O=C1[C@H]2CCn3c(=O)n(Cc4cc5c(cc4Cl)OCO5)c(=O)n3[C@H]2[C@H](O)[C@@H]2O[C@H]12 | 0.298
Cc1ccc2[nH]c3nc(CCCn4ccnc4-c4ccccc4)nnc3c2c1 | 0.802
O=C1[C@H]2[C@H]3[C@H](O)[C@H](O)CC(=NOC[C@@H](O)COCc4ccco4)[C@@H]3CC[C@H]2C(=O)N1C1CCCCC1 | 1.58
CC1(C)O[C@H]2OC([C@H](O)CON3C(=O)c4ccccc4C3=O)[C@H](O)[C@H]2O1 (stereo partly specified) | 0.291
COc1ccc(COC(=O)NN=C2C[C@@H](O)[C@@H](O)[C@@H]3[C@@H]4C(=O)N(C5CCCCC5)C(=O)[C@@H]4CC[C@@H]23)cc1 | -0.371
CO[C@H]1COC(=O)CC=C[C@H](C)[C@H](OC)COC(=O)[C@@H](C)NC(=O)CC=C[C@@H]1C | 1.52
CSCC[C@@H]1NC(=O)CC=C[C@@H](C)COC(=O)[C@H](C)COC1=O | 1.85
CC(C)(C)N1C(=O)[C@H]2[C@@H]3C(=CC[C@H]2C1=O)C(=O)[C@H]1O[C@H]1[C@H]3O | -0.0815
CO[C@@H]1C=CCC(=O)N[C@@H](C)C(=O)OC[C@@H](OC)[C@H](C)C=CCC(=O)OC[C@H]1C | 1.59
CC(=O)OC[C@H]1O[C@H](CC=NO[C@H](C)c2cn([C@@H]3COC[C@H]3O)nn2)C=C[C@@H]1OC(C)=O | 0.42
COc1ccc(O[C@H]2C=C[C@@H](C#Cc3ccccc3)O[C@@H]2CO)cc1 | 0.71
CCCNC(=O)OC[C@H]1O[C@H](CCON=C[C@@H](NS(=O)(=O)c2ccc(C)cc2)[C@H](C)C=CCC(=O)OC)C=C[C@@H]1Oc1ccc(OC)cc1 | 0.0275
CC(=O)OC[C@H]1O[C@@H](ON=C2[C@H]3CCn4c(=O)n(-c5ccccc5)c(=O)n4[C@H]3[C@H](O)[C@@H]3O[C@H]23)[C@H](OC(C)=O)[C@@H](OC(C)=O)[C@@H]1OC(C)=O | 0.413
CC(=O)OC[C@H]1O[C@H](CCON=C(C)C)C=C[C@@H]1OC(C)=O | 0.377
CCOC(=O)NN=C1C[C@@H](O)[C@@H](O)[C@@H]2[C@@H]3C(=O)N(CC)C(=O)[C@@H]3CC[C@H]12 | 0.0358

----------
- ASSAY_TEXT: cell viability in Huh7 cells, primary screen, cytotoxicity control for HCV replication inhibitor project, CellTiter-Glo luminescence, basal, 48 h (AID 1143);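 further: Huh7 hepatoma cells carrying a hepatitis C replication reporter with no stimulus; test concentration not given here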
- DETAILS: Huh7 HCV replicon, higher = more signal, called active from +8 up or from −8 down
Returns Criterion met if the recorded z-score is greater than or equal to -0.2, and Criterion not met otherwise.

COMPOUND | ASSIGNED_CATEGORY
O=C(NN=C1C[C@@H](O)[C@@H](O)[C@@H]2[C@@H]3C(=O)N(Cc4ccc5c(c4)OCO5)C(=O)[C@@H]3CC[C@@H]12)OCc1ccccc1 | Criterion not met
CON=C(C)CCN1CCCc2nc(C)c(C)cc21 | Criterion met
CC(CCN1CCc2nc(-c3ccccc3)c(-c3ccccc3)cc2C1)=NO[C@@H](C)c1cc(-c2c(C)cc(C)cc2C)no1 | Criterion not met
CC(=O)OC[C@H]1O[C@H](CC=NOC(C)CN2CCCc3nc(C)c(C)cc32)C=C[C@@H]1OC(C)=O (stereo partly drawn) | Criterion met
CCOC(=O)[C@H](Cc1ccccc1)NC(=O)CCC1CC(OC(=O)NCCc2ccc(F)cc2)CC2(CCCC(COC(=O)NCc3cccc(C(F)(F)F)c3)O2)O1 (stereo partly drawn) | Criterion not met
COC(=O)CC=C[C@@H](C)[C@@H](C=NOC[C@@H](O)COCc1ccco1)NS(=O)(=O)c1ccc(C)cc1 | Criterion met
COC(=O)[C@H](C)NC(=O)CCC1CC(OC(=O)NCCc2ccc(F)cc2)CC2(CCCC(COC(=O)NCC3CCCCC3)O2)O1 (stereo partly drawn) | Criterion not met
CC(CCN1CCCc2nc(C)c(C)cc21)=NOC[C@@H](O)COCc1ccco1 | Criterion not met
CC(=O)OC[C@H]1O[C@@H](ON=C2[C@H]3CCn4c(=O)n(-c5ccccc5)c(=O)n4[C@H]3[C@H](O)[C@@H]3O[C@H]23)[C@H](OC(C)=O)[C@@H](OC(C)=O)[C@@H]1OC(C)=O | Criterion met
CC(C)(C)N1C(=O)[C@H]2[C@H]3[C@H](O)[C@H](O)CC(=NNC(=O)OCc4ccccc4)[C@H]3CC[C@H]2C1=O | Criterion not met
CO[C@H]1COC(=O)CC=C[C@@H](C)COC(=O)[C@H]2CCCN2C(=O)CC=C[C@H]1C | Criterion met
CCOC(=O)CCN1C(=O)[C@H]2[C@H]3[C@H](O)[C@H](O)CC(=NNC(=O)OCC)[C@H]3CC[C@H]2C1=O | Criterion not met
COc1ccc(OC[C@@H](CO)OC)cc1 | Criterion met
COc1ccc2c(c1)O[C@@H](c1cccc(C(F)(F)F)c1)[C@H](O)C2=O | Criterion not met
CCC1=NOC(CCC2CC(OC(=O)NCc3cccc4c3OCO4)CC3(CCCC(COC(=O)NCCc4ccc(Cl)cc4)O3)O2)C1 (stereo not drawn) | Criterion not met
CC(=O)OC[C@H]1O[C@@H](ON=C(C)CCC(=O)OC[C@H]2O[C@H](C#Cc3ccccc3)C=C[C@@H]2Oc2ccc(C)cc2)[C@H](OC(C)=O)[C@@H](OC(C)=O)[C@@H]1OC(C)=O | Criterion not met
C#CCCCON=C1C[C@@H](O)[C@@H](O)[C@@H]2[C@@H]3C(=O)N([C@@H](C)c4ccccc4)C(=O)[C@@H]3CC[C@@H]12 | Criterion met
CC(C)=NO[C@H](C)c1cn([C@@H]2COC[C@H]2O)nn1 | Criterion met
CC(C)CON=C1C[C@@H](O)[C@@H](O)[C@@H]2[C@@H]3C(=O)N(c4ccc(F)cc4F)C(=O)[C@@H]3CC[C@@H]12 | Criterion not met
CC(CCC(=O)OC[C@H]1O[C@H](C#Cc2ccccc2)C=C[C@@H]1Oc1ccc(C)cc1)=NOC(C)CN1CCCc2nc(C)c(C)cc21 (stereo partly drawn) | Criterion not met
O=C1C[C@@H](O)[C@@H](O)[C@@H]2[C@@H]3C(=O)N(Cc4ccccc4)C(=O)[C@@H]3CC[C@H]12 | Criterion not met
COc1ccc(OC[C@@H]2CC3[C@@H](c4ccc(Br)cc4)[C@H](C)CC[C@H]3C(=O)O2)cc1 (stereo partly drawn) | Criterion not met
C[C@@H](c1ccccc1)N1C(=O)[C@H]2[C@H]3[C@H](O)[C@H](O)CC(=NOCc4ccccc4)[C@@H]3CC[C@H]2C1=O | Criterion met
